molecular target: MEK; test: Cascade assay for inhibitors of the MAP kinase pathway (In Vitro)
Threshold check on IC50: strictly below 200 nM is Criterion met; on or above 200 nM is Criterion not met.

INSERT INTO measurements (compound, assigned_category) VALUES
  ('CCN(CC)CCNC(=O)c1cc(Cl)ccc1Nc1ccc(I)cc1C', 'Criterion not met'),
  ('Cc1cc(I)ccc1Nc1cc(F)ccc1C(=O)NCCCN1CCN(CCO)CC1', 'Criterion not met'),
  ('Cc1cc(I)ccc1Nc1ccc(Br)cc1C(=O)N1CCC(O)C1 (centres unmarked)', 'Criterion not met'),
  ('O=C(O)c1cc([N+](=O)[O-])ccc1Nc1ccc(I)cc1Br', 'Criterion met'),
  ('Cc1cc(I)ccc1Nc1cc(F)c([N+](=O)[O-])cc1C(=O)O', 'Criterion met');

Input Cc1cc(I)ccc1Nc1ccc(Br)cc1C(=O)NCCO [Example 42] ; condition: IC50 strictly below 200 nM. Does it hold? Criterion not met

Quick check: does Cc1cc(I)ccc1Nc1ccccc1C(=O)O have IC50 under 200 nM? Criterion not met

Find out if reported IC50 for Cc1cc(I)ccc1Nc1ccc(Cl)cc1C(=O)O is less than 200 nM Criterion met

====

Give pIC50 for every item shown.
Target: MEK
Assay: Cascade assay for inhibitors of the MAP kinase pathway (In Vitro)
Description: Incorporation of ^32P into myelin basic protein (MBP) was assayed in the presence of a glutathione S-transferase fusion protein containing p44MAP kinase (GST-MAPK) and a glutathione S-transferase fusion protein containing p45MEK (GST-MEK). The assay solution contained 20 mM HEPES, pH 7.4, 10 mM MgCl2, 1-mM MnCl2, 1 mM EGTA, 50 µM [γ-^32P]ATP, 10 µg GST-MEK, 0.5 µg GST-MAPK and 40 µg MBP in a final volume of 100 µL. […] Compounds were assessed at 10 µM for ability to inhibit incorporation of ^32P. […]
Answers are plain numbers, as −log10 of the molar value.

Examples from the recorded data:
INSERT INTO measurements (compound, assayed_system, assay_result) VALUES
  ('Cc1cc(I)ccc1Nc1cc(F)ccc1C(=O)N(C)C', 'MEK', 6.89),
  ('Cc1cc(I)ccc1Nc1ccc(Br)cc1C(=O)N(C)C', 'MEK', 5.71),
  ('CCCCNC(=O)c1ccc(F)cc1Nc1ccc(I)cc1C', 'MEK', 5.74),
  ('Cc1cc(I)ccc1Nc1c(C(=O)O)cc(Br)c(F)c1F', 'MEK', 8.30),
  ('Cc1cc(I)ccc1Nc1ccc([N+](=O)[O-])cc1C(=O)N(C)c1ccccc1', 'MEK', 6.07),
  ('Cc1cc(I)ccc1Nc1ccc(Cl)cc1C(=O)NCCO [Example 31]', 'MEK', 6.65),
  ('Cc1cc(I)ccc1Nc1c(C(=O)O)ccc(F)c1F', 'MEK', 7.95),
  ('Cc1c(Nc2cc(F)ccc2C(=O)O)ccc(I)c1Cl', 'MEK', 5.80),
  ('COc1ccc(Nc2ccc(I)cc2)c(C(=O)O)c1', 'MEK', 5.71),
  ('Cc1cc(I)ccc1Nc1ccc(Cl)cc1C(=O)N(C)c1ccccc1', 'MEK', 6.04);

Kindly give each listed record's pIC50.
1. Cc1cc(I)ccc1Nc1cc(F)ccc1C(N)=O
2. Cc1cc(I)ccc1Nc1cc(F)ccc1C(=O)NN
3. O=C(O)c1cc(Cl)ccc1Nc1ccc(I)cc1Cl

1: 7.28; 2: 7.55; 3: 7.18

State the recorded pIC50 for every item in the following list.
1. CCNC(=O)c1ccc(F)cc1Nc1ccc(I)cc1C
2. COC(=O)c1c(F)c(F)c(N2CCN(C)CC2)c(F)c1Nc1ccc(I)cc1C
3. O=C(O)c1cc([N+](=O)[O-])ccc1Nc1ccc(I)cc1Cl

6.92
8.70
7.01

Each compound below has a reported value. Please supply its pIC50.
1. Cc1cc(Br)ccc1Nc1c(C(=O)O)ccc(F)c1F
2. Cc1cc(I)ccc1Nc1cccc(F)c1C(=O)O
3. Cc1cc(I)ccc1Nc1ccc([N+](=O)[O-])cc1-c1nnn[nH]1

1: 6.71; 2: 5.58; 3: 5.86
